Attribution: ChEMBL document CHEMBL3885861

Quick reference for Mono among some molecules
# Species on record: Rattus norvegicus
# EXPERIMENTAL_PROTOCOL: Open TG-GATES - Regimen: Single
# Assay type: toxicity, organism-based, Sprague-Dawley
# Parameters: regimen Single, gender Male, age 6 weeks
# CONDITION_DETAILS: in vivo, po, 0 mg/kg, 6 h, tissue Blood, route gavage, dose level Control
RECORDED_METRIC: Mono (%)

molecule=COC(=O)C1=C(C)NC(C)=C(C(=O)OC)C1c1ccccc1[N+](=O)[O-] units_text=% endpoint_result=3.2
molecule=CC(C)NNC(=O)c1ccncc1 units_text=% endpoint_result=2.4
molecule="CN(C)CCC(c1ccc(Cl)cc1)c1ccccn1 (configuration not stated)" units_text=% endpoint_result=3.2
molecule=CCCc1cc(=O)[nH]c(=S)[nH]1 units_text=% endpoint_result=6.4
molecule=O=C(OC[C@H]1O[C@@H](OC(=O)c2cc(O)c(O)c(OC(=O)c3cc(O)c(O)c(O)c3)c2)[C@H](OC(=O)c2cc(O)c(O)c(OC(=O)c3cc(O)c(O)c(O)c3)c2)[C@@H](OC(=O)c2cc(O)c(O)c(OC(=O)c3cc(O)c(O)c(O)c3)c2)[C@@H]1OC(=O)c1cc(O)c(O)c(OC(=O)c2cc(O)c(O)c(O)c2)c1)c1cc(O)c(O)c(OC(=O)c2cc(O)c(O)c(O)c2)c1 units_text=% endpoint_result=7.8
molecule=CCOc1ccc(NC(C)=O)cc1 units_text=% endpoint_result=2.6
molecule=CNC(=C[N+](=O)[O-])NCCSCc1ccc(CN(C)C)o1 units_text=% endpoint_result=2.6

----------
# Species: Rattus norvegicus
# EXPERIMENTAL_PROTOCOL: Open TG-GATES - Regimen: Daily Repeat
# Assay type: toxicity, organism-based, Sprague-Dawley
# Set-up: regimen Daily Repeat, gender Male, age 6 weeks
# CONDITION_DETAILS: in vivo, po, 1000 mg/kg, […], tissue Blood, route gavage, dose level High, time 28 day
RECORDED_METRIC: Fbg (mg/dL)

compound="COC(=O)C1=C(C)NC(C)=C(C(=O)OC)C1c1ccccc1[N+](=O)[O-] [NIFEDIPINE]" endpoint_result=252.6
compound="CCOc1ccc(NC(C)=O)cc1 [PHENACETIN]" endpoint_result=251.2
compound="CNC(=C[N+](=O)[O-])NCCSCc1ccc(CN(C)C)o1 [RANITIDINE]" endpoint_result=234.2
compound="Cc1nnc2n1-c1ccc(Cl)cc1C(c1ccccc1Cl)=NC2 [TRIAZOLAM]" endpoint_result=273
compound="O=C(OC[C@H]1O[C@@H](OC(=O)c2cc(O)c(O)c(OC(=O)c3cc(O)c(O)c(O)c3)c2)[C@H](OC(=O)c2cc(O)c(O)c(OC(=O)c3cc(O)c(O)c(O)c3)c2)[C@@H](OC(=O)c2cc(O)c(O)c(OC(=O)c3cc(O)c(O)c(O)c3)c2)[C@@H]1OC(=O)c1cc(O)c(O)c(OC(=O)c2cc(O)c(O)c(O)c2)c1)c1cc(O)c(O)c(OC(=O)c2cc(O)c(O)c(O)c2)c1 [TANNIC ACID]" endpoint_result=225.2
compound="CN/C(=N/CCSCc1nc[nH]c1C)NC#N [CIMETIDINE]" endpoint_result=216.2

----------
# Species on record: Rattus norvegicus
# EXPERIMENTAL_PROTOCOL: Open TG-GATES - Regimen: Daily Repeat
# Format: toxicity, organism-based, Sprague-Dawley
# Set-up: regimen Daily Repeat, gender Male, age 6 weeks
# CONDITION_DETAILS: in vivo, po, 300 mg/kg, […], tissue Plasma, route gavage, dose level Middle, time 7 day
RECORDED_METRIC: GLC (mg/dL)

structure_as_smiles=CN/C(=N/CCSCc1nc[nH]c1C)NC#N units_text=mg/dL endpoint_result=234.6
structure_as_smiles=Cc1nnc2n1-c1ccc(Cl)cc1C(c1ccccc1Cl)=NC2 units_text=mg/dL endpoint_result=187.2
structure_as_smiles=CCOc1ccc(NC(C)=O)cc1 units_text=mg/dL endpoint_result=177.8
structure_as_smiles=COC(=O)C1=C(C)NC(C)=C(C(=O)OC)C1c1ccccc1[N+](=O)[O-] units_text=mg/dL endpoint_result=167
structure_as_smiles=CNC(=C[N+](=O)[O-])NCCSCc1ccc(CN(C)C)o1 units_text=mg/dL endpoint_result=211.6
structure_as_smiles=O=C(OC[C@H]1O[C@@H](OC(=O)c2cc(O)c(O)c(OC(=O)c3cc(O)c(O)c(O)c3)c2)[C@H](OC(=O)c2cc(O)c(O)c(OC(=O)c3cc(O)c(O)c(O)c3)c2)[C@@H](OC(=O)c2cc(O)c(O)c(OC(=O)c3cc(O)c(O)c(O)c3)c2)[C@@H]1OC(=O)c1cc(O)c(O)c(OC(=O)c2cc(O)c(O)c(O)c2)c1)c1cc(O)c(O)c(OC(=O)c2cc(O)c(O)c(O)c2)c1 units_text=mg/dL endpoint_result=205.6

----------
# Species: Rattus norvegicus
# EXPERIMENTAL_PROTOCOL: Open TG-GATES - Regimen: Single
# Format: toxicity, organism-based, Sprague-Dawley
# Design: regimen Single, gender Male, age 6 weeks
# CONDITION_DETAILS: in vivo, po, 300 mg/kg, 9 h, tissue Blood, route gavage, dose level Middle
Quick reference for RBC among some compounds
RECORDED_METRIC: RBC (x10_4/ul)

structure_as_smiles=Cc1nnc2n1-c1ccc(Cl)cc1C(c1ccccc1Cl)=NC2 recorded_metric=RBC units_text=x10_4/ul endpoint_result=629.6
structure_as_smiles=CNC(=C[N+](=O)[O-])NCCSCc1ccc(CN(C)C)o1 recorded_metric=RBC units_text=x10_4/ul endpoint_result=614.4
structure_as_smiles=CN/C(=N/CCSCc1nc[nH]c1C)NC#N recorded_metric=RBC units_text=x10_4/ul endpoint_result=583.4
structure_as_smiles=COC(=O)C1=C(C)NC(C)=C(C(=O)OC)C1c1ccccc1[N+](=O)[O-] recorded_metric=RBC units_text=x10_4/ul endpoint_result=623
structure_as_smiles=O=C(OC[C@H]1O[C@@H](OC(=O)c2cc(O)c(O)c(OC(=O)c3cc(O)c(O)c(O)c3)c2)[C@H](OC(=O)c2cc(O)c(O)c(OC(=O)c3cc(O)c(O)c(O)c3)c2)[C@@H](OC(=O)c2cc(O)c(O)c(OC(=O)c3cc(O)c(O)c(O)c3)c2)[C@@H]1OC(=O)c1cc(O)c(O)c(OC(=O)c2cc(O)c(O)c(O)c2)c1)c1cc(O)c(O)c(OC(=O)c2cc(O)c(O)c(O)c2)c1 recorded_metric=RBC units_text=x10_4/ul endpoint_result=592.8

----------
# Organism: Rattus norvegicus
# EXPERIMENTAL_PROTOCOL: Open TG-GATES - Regimen: Daily Repeat
# Format: toxicity, organism-based, Sprague-Dawley
# Set-up: regimen Daily Repeat, gender Male, age 6 weeks
# CONDITION_DETAILS: in vivo, po, 100 mg/kg, […], tissue Kidney, route gavage, dose level Low, time 28 day
Quick reference for KIDNEY_L among some compounds
RECORDED_METRIC: KIDNEY_L (g)

compound="CCOc1ccc(NC(C)=O)cc1 [PHENACETIN]" recorded_metric=KIDNEY_L endpoint_result=1.4
compound="CN/C(=N/CCSCc1nc[nH]c1C)NC#N [CIMETIDINE]" recorded_metric=KIDNEY_L endpoint_result=1.4
compound="COC(=O)C1=C(C)NC(C)=C(C(=O)OC)C1c1ccccc1[N+](=O)[O-] [NIFEDIPINE]" recorded_metric=KIDNEY_L endpoint_result=1.3
compound="Cc1nnc2n1-c1ccc(Cl)cc1C(c1ccccc1Cl)=NC2 [TRIAZOLAM]" recorded_metric=KIDNEY_L endpoint_result=1.4

----------
# Species: Rattus norvegicus
# EXPERIMENTAL_PROTOCOL: Open TG-GATES - Regimen: Single
# Type: toxicity, organism-based, Sprague-Dawley
# Design: regimen Single, gender Male, age 6 weeks
# CONDITION_DETAILS: in vivo, po, 0 mg/kg, 6 h, tissue Plasma, route gavage, dose level Control
Quick reference for AST among some compounds
RECORDED_METRIC: AST (IU/L)

compound="CCOc1ccc(NC(C)=O)cc1 [PHENACETIN]" recorded_metric=AST endpoint_result=74.4
compound="Brc1ccccc1 [BROMOBENZENE]" recorded_metric=AST endpoint_result=76.6
compound="CN(C)CCC(c1ccc(Cl)cc1)c1ccccn1 (configuration not stated) [CHLORPHENIRAMINE]" recorded_metric=AST endpoint_result=76.2
compound="CN1C(=O)CCS(=O)(=O)C1c1ccc(Cl)cc1 (configuration not stated) [CHLORMEZANONE]" recorded_metric=AST endpoint_result=78
compound="COC(=O)C1=C(C)NC(C)=C(C(=O)OC)C1c1ccccc1[N+](=O)[O-] [NIFEDIPINE]" recorded_metric=AST endpoint_result=71
compound="CCCc1cc(=O)[nH]c(=S)[nH]1 [PROPYLTHIOURACIL]" recorded_metric=AST endpoint_result=66.8
compound="Nc1c2c(nc3ccccc13)CCCC2 [TACRINE]" recorded_metric=AST endpoint_result=74.6
